Target of assay: N-terminal Xaa-Pro-Lys N-methyltransferase 1 (Homo sapiens)
Method description: Confirmatory qHTS for Inhibitors of N-terminal methyltransferase 1 (NTMT1): MTaseGlo Assay (AID 1645874); note: nearly all actives have a fitted effect of over 65% in size
Conditions: NTMT1 enzyme, MTase-Glo SAH luminescence; series mostly up to 100 µM
Results filed as inconclusive are left out. Active and inactive are the calls of the source. Calls come from the whole dose curve; as a rule, active = well fitted inhibition curve with a large enough effect; inconclusive = small, poorly fitted or top-dose-only effect; inactive = no such curve, though single readings can be large or run the other way.
Could you please pick one outcome from this set? active, inactive

Worked cases, answers included:
[[record]]
compound = "CCCC1(CCC)CCC2(CCN(CCCN(CC)CC)C2)CC1"
label_value = "active"

[[record]]
compound = "COc1cc2c(Nc3cc(F)c(Cl)c(Cl)c3)ncnc2cc1OCC1CCCN(C)CCC1"
label_value = "active"

[[record]]
compound = "O=C(O)c1cc(N(Cc2ccc(C3CCCCC3)cc2)C(=O)c2ccc(Oc3ccccc3)cc2)ccc1O"
label_value = "active"

[[record]]
compound = "O=C(Cc1c(F)cccc1F)Nc1cc(OCc2ccc(Cl)cc2)ccn1"
label_value = "inactive"

[[record]]
compound = "COc1ccc2nc(-c3cc(OC)c(OC)c(OC)c3)cc(C(=O)NCC(=O)Nc3ccc(C(C)=O)cc3)c2c1"
label_value = "inactive"


In this assay, the call recorded for Cc1ccc(NC(=O)N2CCN(c3nc(N)nc4sc(-c5cccnc5)nc34)CC2)cc1 was what?
inactive

In this assay, the call recorded for CCOc1ccc(Cc2nc(-c3c(C)nc4ccccn34)cs2)cc1 was what?
inactive

In this assay, the call recorded for O=c1nc(-c2ccccn2)sc2ccccc12 was what?
inactive

In this assay, the call recorded for C/C=C/C=C/C=C/C(=O)O[C@@H]1C=C2COC(=O)[C@]2(O)[C@@]2(C)CCCC(C)(C)[C@H]12 was what?
inactive

In this assay, the call recorded for CN(C)C(=O)Nc1cc(-c2ccccc2)ccc1N(C)C was what?
inactive

----------
System: Zika virus NS2B-NS3 protease (linked construct)
Method description: Primary screen NINDS Rhodamine qHTS for Zika virus inhibitors (AID 1347160); note: nearly all actives have a fitted effect of over 55% in size
Conditions: purified NS2B-NS3 protease, Rhodamine110 substrate fluorescence; series mostly up to 57.1 µM
Inconclusive results are not listed. The source made the active and inactive calls. The call rests on the fitted dose curve; in most records, active means well fitted inhibition curve with a large enough effect; inconclusive means small, poorly fitted or top-dose-only effect; inactive means no such curve, though single readings can be large or run the other way.
Could you please pick one outcome from this set? active, inactive

Worked cases, answers included:
[[record]]
molecule = "C=C1/C(=C/C=C2\\CCC[C@]3(C)[C@@H]([C@H](C)/C=C/[C@@H](C)C(C)C)CC[C@@H]23)C[C@@H](O)C[C@@H]1O"
label_value = "inactive"

[[record]]
molecule = "CCc1cnc(N2CCC(c3nc(COc4ccc(-n5cnnn5)cc4)cs3)CC2)nc1"
label_value = "inactive"

[[record]]
molecule = "O=C(CCl)Nc1cccc(NC2=NS(=O)(=O)c3ccccc32)c1"
label_value = "inactive"

[[record]]
molecule = "Cc1nc2ccc(-n3ncc(C(=O)c4cc5ccccc5[nH]4)c3N)cc2[nH]1"
label_value = "inactive"

[[record]]
molecule = "C[C@@H](NC(=O)C(=O)c1c[nH]c2ccc([N+](=O)[O-])cc12)c1ccccc1"
label_value = "inactive"


In this assay, the call recorded for CCn1c(N)c(C(=O)NC)c(=O)c2ccc(C#CC(C)(O)COC)nc21 (centres undefined) was what?
inactive

In this assay, the call recorded for COc1cc2ncnc(Nc3cccc(I)c3)c2cc1OC was what?
inactive

In this assay, the call recorded for CC1=CC2/C=C(\C)CCC(O)C/C=C/C(=O)OC23C(=O)NC(CC(C)C)C3C1C (centres undefined) was what?
inactive

In this assay, the call recorded for CC(NC(=O)Cc1cc(F)cc(F)c1)C(=O)NC1C(=O)N(C)c2ccccc2-c2ccccc21 (centres undefined) was what?
inactive

In this assay, the call recorded for C=CC(=O)N1CCC(Oc2cc3c(Nc4ccc(Cl)c(Cl)c4F)ncnc3cc2OC)CC1 was what?
inactive
